System: Mus musculus
Assay: Neurotoxicity in albino CF1 mouse assessed as minimal motor impairment at 300 mg/kg, ip after 0.5 hrs by rotarod test
Format: toxicity, organism-based
Design: dose 300 mg/kg, route intraperitoneal
Conditions: in vivo
experimental readout: Activity

Example cases with answers are listed next.
c1ccc(-c2c[nH]c(-c3ccccc3)n2)cc1 ... Toxic
O=[N+]([O-])c1cccc(-c2c[nH]c(-c3ccccc3)n2)c1 ... Non-toxic
c1ccc(-c2c[nH]c(-c3ccco3)n2)cc1 ... Toxic
O=[N+]([O-])c1ccc(-c2nc(-c3ccccc3)c[nH]2)cc1 ... Non-toxic
c1ccc(-c2c[nH]c(-c3ccncc3)n2)cc1 ... Toxic
O=[N+]([O-])c1ccc(-c2c[nH]c(-c3ccccc3)n2)cc1 ... Non-toxic

Go through the items and report each one's Activity.
1. COc1ccc(-c2c[nH]c(-c3ccccc3)n2)cc1
2. Clc1ccc(-c2nc(-c3ccccc3)c[nH]2)cc1
3. FC(F)(F)c1cccc(-c2c[nH]c(-c3ccc(Cl)cc3)n2)c1
4. O=[N+]([O-])c1ccc(-c2nc(-c3cccc(C(F)(F)F)c3)c[nH]2)cc1

["Toxic", "Non-toxic", "Non-toxic", "Non-toxic"]

Go through the items and report each one's Activity.
1. c1ccc(-c2c[nH]c(-c3ccoc3)n2)cc1
2. FC(F)(F)c1ccc(-c2nc(-c3ccccc3)c[nH]2)cc1
3. COc1ccc(-c2nc(-c3ccccc3)c[nH]2)cc1
4. O=[N+]([O-])c1cccc(-c2nc(-c3ccccc3)c[nH]2)c1
5. FC(F)(F)c1cccc(-c2c[nH]c(-c3cccc(C(F)(F)F)c3)n2)c1

Toxic
Non-toxic
Toxic
Non-toxic
Non-toxic

Origin of the recorded values: ChEMBL document CHEMBL1275354
